Reference source: paper PMC11173618

target-desc: PD-1/PD-L1 complex (Homo sapiens)
Construct: purchased cis-bio
Sequence (Q9NZQ7 19-238 limits assumed, one chain of several): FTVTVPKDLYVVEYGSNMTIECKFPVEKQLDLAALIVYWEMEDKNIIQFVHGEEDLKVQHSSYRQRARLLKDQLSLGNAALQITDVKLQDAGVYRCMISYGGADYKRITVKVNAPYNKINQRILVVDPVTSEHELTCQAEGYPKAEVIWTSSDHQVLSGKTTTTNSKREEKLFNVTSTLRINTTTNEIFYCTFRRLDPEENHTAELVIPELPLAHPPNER
assay-name: HTRF assay of PD-1/PD-L1 complex inhibition (cis-bio kit)
Assay type: binding
details: 1 h; inhibitor 0.5 µM; scouting mode; 5 nM PD-L1, 50 nM PD-1; read-out: HTRF [%] (percentage of dissociated PD-1/PD-L1 complex)
Method: All synthesized molecules were tested in the homogeneous time-resolved fluorescence (HTRF) assay to assess their activity as inhibitors of the PD-1/PD-L1 complex (Table 1, Table 2 and Table 3). This evaluation was conducted in scouting modes, employing concentrations of 5 μM and 0.5 μM. […] The certified cis-bio assay kit was used to perform the HTRF assay. […] The plate was incubated for 1 h and then read on an HTRF-certified Tecan Spark 20M microplate reader. […]
Task for the reader: assign each of the following compounds its reported inhibition at 0.5 µM.
# output: bare number, implied unit %

Ask | Request - read-out inhibition at 0.5 µM | tested on PD-1/PD-L1 complex (Homo sapiens) | compound COc1cc(CNCCO)ccc1OCc1ccc(-c2cccc(-c3ccc(COc4ccc(CNCCO)cc4OC)c(C)c3)c2C)cc1C
Reply | 93.1

Ask | Same again, this time with CC(=O)NCCNCc1cccc(OCc2cccc(-c3cc(C)cc(-c4cccc(COc5cccc(CNCCNC(C)=O)c5Br)c4C)c3)c2C)c1Br
Reply | 93.9

Ask | Entry CC(=O)NCCNCc1cccc(OCc2cccc(-c3cc(C)cc(-c4cccc(COc5cccc(CNCCNC(C)=O)c5)c4)c3)c2)c1 please
Reply | 80.4

Ask | Likewise for COc1cccc(CNCCNC(C)=O)c1OCc1cccc(-c2cccc(-c3cccc(COc4c(CNCCNC(C)=O)cccc4OC)c3)c2C)c1 ?
Reply | 88.9

Ask | What do you have for CC(=O)NCCNCc1cccc(OCc2cccc(-c3cc(C)cc(-c4cccc(COc5cccc(CNCCNC(C)=O)c5)c4F)c3)c2F)c1 ?
Reply | 89.9

Ask | Try this compound next: CC(=O)NCCNCc1cccc(OCc2cccc(-c3cc(C)cc(-c4cccc(COc5cccc(CNCCNC(C)=O)c5Br)c4)c3)c2)c1Br
Reply | 88.6

Ask | Follow-up entry: COc1cc(-c2cc(C)cc(-c3ccc(COc4c(CNCCNC(C)=O)cccc4OC)c(OC)c3)c2)ccc1COc1c(CNCCNC(C)=O)cccc1OC
Reply | 86.1

Ask | Another compound to look at: COc1cc(CNCCNC(C)=O)ccc1OCc1ccc(-c2cccc(-c3ccc(COc4ccc(CNCCNC(C)=O)cc4OC)cc3C)c2C)c(C)c1
Reply | 82.1

Ask | Let us now turn to COc1cccc(CNCCO)c1OCc1cccc(-c2cccc(-c3cccc(COc4c(CNCCO)cccc4OC)c3)c2C)c1
Reply | 104

Ask | Try COc1cc(CNCCNC(C)=O)ccc1OCc1ccc(-c2cccc(-c3ccc(COc4ccc(CNCCNC(C)=O)cc4OC)c(C)c3)c2C)cc1C next.
Reply | 93.8
